Molecular target: P. aeruginosa MurF (Pseudomonas aeruginosa, UniProt Q9EY48)
Construct: made in house
Sequence (Q9EY48 entry or part of it): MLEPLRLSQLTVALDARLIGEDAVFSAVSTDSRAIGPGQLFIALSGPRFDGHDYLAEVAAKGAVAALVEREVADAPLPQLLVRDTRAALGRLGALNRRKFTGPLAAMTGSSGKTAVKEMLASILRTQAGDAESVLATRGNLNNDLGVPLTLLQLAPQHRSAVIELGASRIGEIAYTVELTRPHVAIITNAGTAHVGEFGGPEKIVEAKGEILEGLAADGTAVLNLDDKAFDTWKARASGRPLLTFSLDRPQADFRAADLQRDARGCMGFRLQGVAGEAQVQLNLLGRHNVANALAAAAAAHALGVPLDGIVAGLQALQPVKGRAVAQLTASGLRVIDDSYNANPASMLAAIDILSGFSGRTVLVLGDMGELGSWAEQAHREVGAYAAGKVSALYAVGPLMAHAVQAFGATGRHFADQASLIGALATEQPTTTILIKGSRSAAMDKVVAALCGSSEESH
Assay: MurF inhibition by MurFp1, spectrophotometric (Lanzetta reagent) ATPase assay
Assay type: biochemical
Conditions: 30 min pre-incubation with MurF, MurFp1 and UDP-MurNAc-Ala-Glu-meso-A2pm; 40 nM MurF, pH 8.6, room temperature, 15 min reaction; OD 660 nm; assays in triplicate
Protocol: The ATPase activity of P. aeruginosa MurF was quantified by a colorimetric assay that measures the release of nanomoles of inorganic phosphate using the Lanzetta reagent. […] The optical density at 660 nm was immediately measured with a Cary spectrophotometer (Varian, Mississauga, Ontario, Canada). The amount of inorganic phosphate released by MurF was determined by comparison to the linear portion of a phosphate standard curve with a minimum R^2 value of 0.99. […]
Ends that are not written are not given here.
QUANTITY MEASURED: pIC50
pIC50 is defined as minus the log10 of a concentration measured in mol/L.

Q) Which pIC50 is listed for TMGFTAPRFPHY [MurFp1] ?
A) 3.60
